Each item that follows carries a reported pKd.
Target: T1, human CD3εδ-Fc heterodimer (Hu CD3ε Fc / CD3δ Fc-HIS) (human, UniProt P04234 22-100)
T1 construct: range 22-100; Produced in HEK 293 cells with a heterologous signal peptide; heterodimer purified by Ni Sepharose and Mono Q; also called Hu CD3εδ Fc heterodimer; CD3εδ Fc-HIS heterodimer; not shown: Fc-HIS part of CD3δ Fc-HIS
T1 sequence (chain, as listed by the source mutant, form in doubt, chain 1 of 2): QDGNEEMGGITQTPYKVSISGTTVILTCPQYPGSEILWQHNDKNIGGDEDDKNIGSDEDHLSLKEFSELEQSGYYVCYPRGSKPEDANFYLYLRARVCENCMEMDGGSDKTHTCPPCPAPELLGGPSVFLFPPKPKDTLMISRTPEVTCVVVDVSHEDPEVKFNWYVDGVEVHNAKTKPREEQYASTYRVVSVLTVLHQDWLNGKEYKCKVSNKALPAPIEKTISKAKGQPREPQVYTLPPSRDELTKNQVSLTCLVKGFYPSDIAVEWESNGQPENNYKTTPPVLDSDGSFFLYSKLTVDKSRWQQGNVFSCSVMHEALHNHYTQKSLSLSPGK
T1 sequence (P04234 22-100, stated change not applied, form in doubt, chain 2 of 2): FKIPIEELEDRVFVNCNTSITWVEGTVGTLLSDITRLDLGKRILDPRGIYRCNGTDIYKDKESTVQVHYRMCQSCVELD
Assay: BLI (Octet), CD3εδ-Fc on AHC sensor, CHO-derived Fab 100 nM in solution, pH 6.0
# log scale: pKd equals minus log10 of the concentration in mol/L

// known answers, use as guide
Binder	Value kind	Reported result
Fab of ADI-48587 (Antibody No. 2) (Fab, V domains shown, Fab made by papain digestion of the human IgG1 (yeast- or CHO-produced); also called Antibody No. 2 Fab; ADI-48587 Fab) VH: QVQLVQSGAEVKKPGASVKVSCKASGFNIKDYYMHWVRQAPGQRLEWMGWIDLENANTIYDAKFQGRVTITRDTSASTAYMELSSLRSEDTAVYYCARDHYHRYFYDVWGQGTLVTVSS VL: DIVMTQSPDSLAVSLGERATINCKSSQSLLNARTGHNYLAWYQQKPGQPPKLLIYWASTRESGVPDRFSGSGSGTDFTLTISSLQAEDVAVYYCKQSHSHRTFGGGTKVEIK	pKd	7.18
Fab of ADI-26906 (Antibody No. 1) (Fab, V domains shown, Fab made by papain digestion of the human IgG1 (yeast- or CHO-produced); also called Antibody No. 1 Fab; ADI-26906 Fab) VH: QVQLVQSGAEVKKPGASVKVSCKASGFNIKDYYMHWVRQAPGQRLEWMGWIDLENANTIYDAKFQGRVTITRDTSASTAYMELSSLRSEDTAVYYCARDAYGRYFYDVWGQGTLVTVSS VL: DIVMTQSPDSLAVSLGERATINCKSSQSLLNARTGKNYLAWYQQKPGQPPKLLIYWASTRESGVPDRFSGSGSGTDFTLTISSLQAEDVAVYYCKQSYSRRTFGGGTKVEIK	pKd	8.24

input: Recorded pKd for Fab of ADI-74968 (Antibody No. 6) (Fab, V domains shown, Fab made by papain digestion of the human IgG1 (yeast- or CHO-produced); also called Antibody No. 6 Fab; ADI-74968 Fab) VH: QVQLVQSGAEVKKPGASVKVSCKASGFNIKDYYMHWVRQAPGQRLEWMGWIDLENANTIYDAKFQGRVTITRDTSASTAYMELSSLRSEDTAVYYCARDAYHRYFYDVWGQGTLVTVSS VL: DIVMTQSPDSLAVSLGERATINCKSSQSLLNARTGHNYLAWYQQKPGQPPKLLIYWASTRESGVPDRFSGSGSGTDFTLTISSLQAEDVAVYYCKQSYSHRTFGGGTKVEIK , please?
output: 7.83
